Value source: a melting point compilation (Tetko et al.; mined from patent text by program, amines drawn as free bases though some values may be those of a salt)

endpointName: melting point

Field request: melting point | item: `N#Cc1c(-c2ccc(OCc3ccccc3)cc2)cn(-c2cccc(OCCCl)c2)c1N`
77 to 79 °C

Field request: melting point | item: O=C1CC(c2ccc(O)cc2)Cc2ccccc21 (stereo not drawn)
194 to 195 °C

Field request: melting point | item: `CC1(C)CC(=O)c2c(N3CCC3)sc(-c3cc[nH]n3)c2C1`
263 to 265 °C

* * *

Below is a list of entries, each paired with its recorded melting point value.

Use the examples below as a reference point.
compound: Cc1cc(Br)cnc1CCCCN=C(NC#N)NCc1ccccc1
melting point: 140 to 141 °C
--
compound: CCCc1c(OCCCOc2ccc(C(=O)C(=O)O)cc2)ccc(C(C)=O)c1OC
melting point: 94 to 96 °C
--
compound: CCOc1nc(N2CCSCC2)nc(Cl)c1[N+](=O)[O-]
melting point: 149 to 150 °C
--
compound: COCC(C)Oc1cc(Oc2ccc(S(C)(=O)=O)cc2)cc2cc(C3=NCC(CC(N)=O)S3)[nH]c12 (stereo not given)
melting point: 107 to 112 °C

Consider now this further compound.
Field request: melting point | item: `CC(C)NC1=Nc2cccnc2SC1`
135 to 139 °C
